// provenance: PubChem BioAssay (NCI)

- Test system: HCT-116 colon
- PROCEDURE_SUMMARY: NCI-60 one-dose screen, 48 h (100 = growth as untreated, 0 = no growth, -100 = all killed)
- RECORDED_CONDITIONS: 10 µM unless noted
About 83,000 compounds went through this panel and 20% of them were active in at least one assay; those are over-represented in the sample as a whole.
Assign class by growth: not lower than 50% means y; lower than 50% means n.

O=C1Nc2cc(Cl)ccc2/C1=C/c1cccc(OCc2ccccn2)c1 :: n
CC(=O)/C=C/c1cccc2c1C(=O)NC(C)(c1cc3cc(Br)ccc3oc1=O)N2 (stereo not given) :: n
CCCCSc1nc(Nc2ccc(C(C)=O)cc2)c(C#N)c(-c2ccc(OC)cc2)n1 :: n

## Task Textbook exercise: given the entry `Cn1cc(-c2cc(N)n3nc(-c4cn(C)c5ccc(Cl)cc45)cc3n2)c2ccccc21` , state whether its growth is greater than or equal to 50%.
## Result y

## Task And what about the compound CCOP(=O)(OCCCl)c1nc(-c2ccc(C)cc2)oc1NCc1ccccc1 (stereo not given) ?
## Result y

## Task And what about the compound C=C1CCC2C3(C)COC(c4ccccc4F)OC3CCC2(C)C1CC(O)C1=CCOC1=O (stereo not given) ?
## Result n

## Task And what about the compound `COc1cc(-c2nc3cc(Cl)c(Cl)cc3[nH]2)ccc1OCc1nnc(-c2cccs2)o1` ?
## Result n

## Task And what about the compound `Cc1cc(N=C2NC(=O)CS2)n[nH]1` ?
## Result y

## Task And what about the compound `O=C(c1ccccc1)C(c1c[nH]c2ccccc12)c1c[nH]c2ccccc12` ?
## Result n

###

- Tested on: NCI-H226 lung
- PROCEDURE_SUMMARY: NCI-60 one-dose screen, 48 h
- RECORDED_CONDITIONS: 10 µM unless noted
About 83,000 compounds went through this panel and 20% of them were active in at least one assay; those are over-represented in the sample as a whole. Active and inactive are the calls of the source. How the source made its calls: active means growth percent below 10; inactive means the rest.
Your reply should match one of these outcome classes. active, inactive

Solved cases below.
CCN1C(=O)/C(=N\N=C(/C)c2ccc3c(c2)Nc2ccccc2S3)c2cc(Cl)ccc21 :: inactive
COc1cc2c(c(OC)c1OC)C(=O)CC(c1cccc(NC(=O)c3cc(N)ccc3Cl)c1)O2 (stereo unspecified) :: inactive
COc1cccc(COc2ccc(NC(=O)Nc3ccc(Cl)c(C(F)(F)F)c3)cc2)c1 :: inactive
Cc1c(C(=O)NNC(=O)c2ccc(Cl)cc2)nnn1-c1ccc(Br)cc1 :: inactive
CC(C)Sc1nc(NCCc2c[nH]c3ccccc23)c(C#N)c(-c2ccccc2)n1 :: inactive
CC(C)c1sc(NC(=O)c2cc(NC(=O)c3cc(NC(=O)c4nccn4C)cn3C)cn2C)nc1C(=O)NCCCN(C)C :: inactive
COc1ccc(NC(=O)Cn2c(O)c(N=Nc3ccc(S(N)(=O)=O)cc3)c3ccccc32)cc1 :: inactive
CSc1ccc(NC(=O)c2ccc3nn(/C(C#N)=C/c4ccccn4)nc3c2)cc1 :: active
NS(=O)(=O)c1ccc(-n2cc(-c3cccc(NC(=O)c4cc(Cl)cc(Cl)c4)c3)nn2)cc1 :: inactive
CN(C)c1nc(NCCNS(=O)(=O)c2ccc(C3=Nc4c(N)nc(N)nc4NC(c4ccc(F)cc4)C3)cc2)nc(Nc2ccc(F)cc2)n1 (stereo unspecified) :: inactive

## Task Hi, do you know how `COc1cc(/C=C/C(=O)c2ccccc2)ccc1Oc1nc(Nc2ccc(F)cc2)nc(N(C)C)n1` came out in this test?
## Result inactive

## Task And what about the molecule `CC(=O)Oc1ccccc1C(=O)[Se]C(=NC1CCCCC1)NC1CCCCC1` ?
## Result active

###

- System: HCT-15 colon
- PROCEDURE_SUMMARY: NCI-60 one-dose screen, 48 h
- RECORDED_CONDITIONS: 10 µM unless noted
The panel holds about 83,000 compounds, 20% with a hit somewhere; the sample as a whole holds those more often. Calls of active or inactive are those of the source. How the source made its calls: active means growth percent below 10; inactive means the rest.
Your reply should match one of these outcome classes. active, inactive

Solved cases below.
COc1cccc(-c2c(C#N)c(-c3ccc(Cl)cc3)nc3n[nH]c(-c4ccc(Cl)cc4)c23)c1 :: active
Cn1cc(-c2nc(N)nnc2-c2c[nH]c3ccc(F)cc23)c2cccnc21 :: inactive
O=C(O)c1cccc(-c2ccc(/C=N/NC(=O)c3[nH]c4ccc(Br)cc4c3-c3ccccc3)o2)c1 :: inactive
CN(C)CCn1c2ccccc2c2nc3cc4ccccc4cc3nc21 :: active

## Task Hi, do you know how `Nc1n[nH]c2cccc(C#Cc3cccc(NC(=O)c4cccc(Cl)c4)c3)c12` came out in this test?
## Result inactive

###

- Test system: MALME-3M melanoma
- PROCEDURE_SUMMARY: NCI-60 one-dose screen, 48 h (100 = growth as untreated, 0 = no growth, -100 = all killed)
- RECORDED_CONDITIONS: 10 µM unless noted
The panel holds about 83,000 compounds, 20% with a hit somewhere; the sample as a whole holds those more often.
Assign class by growth: not lower than 60% means yes (1); lower than 60% means no (0).

Solved cases below.
Cc1ccc(C(SCCNCc2cc(N(C)C)ccn2)(c2ccccc2)c2ccccc2)cc1 :: no (0)
CC(C)(C)OC(=O)/C=C/c1cccc2c1C(=O)NC(C)(c1cc3cc(Cl)ccc3oc1=O)N2 (stereo not given) :: no (0)
C/C(=N\N=C\c1cc([N+](=O)[O-])ccc1Cl)c1ccc2c(c1)Nc1ccccc1S2 :: yes (1)

## Task Textbook exercise: given the entry `CC(C)Sc1nc(NCCc2c[nH]c3ccccc23)c(C#N)c(-c2ccccc2)n1` , state whether its growth is greater than or equal to 60%.
## Result no (0)

## Task And what about the compound `COc1ccc(-c2ccnc(SCc3cc4cc(Cl)ccc4[nH]c3=O)n2)cc1` ?
## Result no (0)

###

- Test system: CAKI-1 renal
- PROCEDURE_SUMMARY: NCI-60 one-dose screen, 48 h
- RECORDED_CONDITIONS: 10 µM unless noted
Compounds without any hit were thinned out: in the full panel of roughly 83,000, 20% have a hit. Active and inactive are the calls of the source. The calls were made as follows: active = growth percent below 10; inactive = the rest.
Your reply should match one of these outcome classes. YES (active), NO (inactive)

Solved cases below.
COc1ccc(C(=O)Nc2n[nH]c(Nc3ccccc3)c2C#N)cc1 :: NO
COc1ccc(/C=C/c2n(Cc3ccc4ccccc4c3)c3ccccc3[n+]2Cc2ccc3ccccc3c2)cc1 :: YES
O=C(/C=C/c1ccc(-c2ccccc2)cc1)c1nc2ccccc2n1Cc1ccc(F)cc1 :: NO

## Task Hi, do you know how `Cc1cc2nc3c([nH]c2cc1C)c1ccc(=O)cc1n3CCN(C)C` came out in this test?
## Result NO

## Task And what about the molecule COc1ccc(C2CC(c3ccc(S(=O)(=O)NCCNc4nc(Nc5ccc(F)cc5)nc(N(C)C)n4)cc3)=Nc3c(N)nc(N)nc3N2)cc1 (centres undefined) ?
## Result NO

## Task And what about the molecule `CN(C)CCn1c2ccccc2c2nc3cc(C(F)(F)F)ccc3nc21` ?
## Result NO

## Task And what about the molecule `COc1ccc(-c2ccnc(SCc3cc4cc(OC)ccc4[nH]c3=O)n2)cc1` ?
## Result NO

## Task And what about the molecule `COc1ccc(/C=C/c2nc3ccccc3c(=O)n2CC(=O)Nc2ccc(OC)cc2)cc1` ?
## Result NO

## Task And what about the molecule `N#Cc1c(-c2ccc(Cl)cc2)nc2n[nH]c(-c3ccc(Cl)cc3)c2c1-c1ccc(C(F)(F)F)cc1` ?
## Result YES

###

- System: PC-3 prostate
- PROCEDURE_SUMMARY: NCI-60 one-dose screen, 48 h (100 = growth as untreated, 0 = no growth, -100 = all killed)
- RECORDED_CONDITIONS: 10 µM unless noted
About 83,000 compounds went through this panel and 20% of them were active in at least one assay; those are over-represented in the sample as a whole. Active and inactive are the calls of the source. The calls were made as follows: active = growth percent below 10; inactive = the rest.
EXPERIMENTAL_ENDPOINT: growth

Example results:
C=C1CCC2C3(C)COC(c4ccccc4F)OC3CCC2(C)C1CC(O)C1=CCOC1=O (stereo unspecified) :: 36.5% (inactive)
CCN(CC)c1ccc(/C=N/Nc2nc(-c3ccc(C)cc3)cs2)c(O)c1 :: 70.5% (inactive)
COc1ccc2[nH]c(O)c(N=NC(=O)COc3ccc(NC(=O)Nc4ccccc4)cc3)c2c1 :: 40.5% (inactive)

## Task Which growth is reported for this compound? `Cc1cc(C)cc(C(=O)Nc2cccc(-c3cn(-c4ccc(S(N)(=O)=O)cc4)nn3)c2)c1`
## Result 83% (inactive)

###

- Tested on: UACC-257 melanoma
- PROCEDURE_SUMMARY: NCI-60 one-dose screen, 48 h (100 = growth as untreated, 0 = no growth, -100 = all killed)
- RECORDED_CONDITIONS: 10 µM unless noted
Compounds without any hit were thinned out: in the full panel of roughly 83,000, 20% have a hit. Active and inactive are the calls of the source. Rule for the calls: active = growth percent below 10; inactive = the rest.
EXPERIMENTAL_ENDPOINT: growth

## Task Which growth is reported for this molecule? `S=c1c2ccccc2nc2n1CCc1c-2[nH]c2ccccc12`
## Result 66.1% (inactive)

## Task And what about the molecule `COc1cc(OC)c2c3nc4cc(C)c(C)cc4nc3n(CCN(C)C)c2c1` ?
## Result 101% (inactive)

## Task And what about the molecule O=c1oc2ccccc2cc1-c1csc(N2N=C(c3ccccc3)CC2c2ccc(N3CCOCC3)cc2)n1 (stereo not given) ?
## Result 119% (inactive)

## Task And what about the molecule `CC(=O)c1cccc(NC(=O)CCC(=O)NS(=O)(=O)c2ccc(C)cc2)c1` ?
## Result 103% (inactive)

## Task And what about the molecule COc1ccc(C2=NN(C(C)=O)C(c3ccc(OCc4ccc(Cl)cc4)c(OC)c3)C2)cc1OC (stereo not given) ?
## Result 40.2% (inactive)
